Each recorded value in this set is attributed to PubChem BioAssay.

- Tested on: Noggin (protein binding on small-molecule microarray)
- test: Noggin binders on small-molecule microarray, primary screen, biochemical, 635/667 nm fluorescence (AID 1095);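 note: score merges 667 nm feature fluorescence with signal to noise over triplicate slides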
- recorded-conditions: 635 nm fluorescence, higher = more signal
Hi, to clarify the labels: criterion met covers composite z-score from 0.7 upward, criterion not met covers anything below 0.7.

1) NC(=O)[C@@H]1[C@H]2C(=O)O[C@H](c3ccccc3)[C@H](c3ccccc3)N2[C@H](c2ccc(O)cc2)[C@@]12C(=O)Nc1ccc(C#CC3(O)CCCCCC3)cc12 ... criterion not met
2) C=CCOC(=O)[C@@H]1[C@H]2C(=O)O[C@H](c3ccccc3)[C@H](c3ccccc3)N2[C@H](c2ccc(OCCOC(=O)[C@@H]3C[C@@H]4C(=O)N[C@@H](CCCC[N+](C)(C)C)C(=O)N4[C@@H]3c3cccc(OCCO)c3)cc2)[C@@]12C(=O)Nc1ccc(I)cc12 ... criterion met
3) C=CC[C@]1(C(=O)N2CCCCC2)N=C(c2ccc(OCCCO)cc2)O[C@H]1c1ccccc1 ... criterion met
4) C#CCN(CC1=CCCCC1)[C@H](c1ccccc1Br)[C@@H](O)Cc1ccccc1 ... criterion not met
5) CN1C(=O)C2C=CC(C(O)c3cccs3)N(Nc3ccccc3)C2C1=O (configuration not stated) ... criterion not met
6) [N-]=[N+]=Nc1ccccc1C[C@@]1(C(=O)NCCN2CCOCC2)N=C(c2ccc(OCCCO)cc2)O[C@@H]1c1ccccc1 ... criterion met
7) COc1ccc([C@H]2C[C@H]3C(Br)=C[C@@H]2C(=O)[C@]32CO2)cc1 ... criterion not met

---

Quick list: z-score per entry.
- test: MM1S myeloma cell viability, profiling panel, resazurin fluorescence, basal, 24 h, PK04 Diversity Set (AID 1174);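 note: MM1S multiple myeloma cell line; test concentration not given here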
- recorded-conditions: higher = more signal, called active from +8 up or from −8 down
Calls of active or inactive are those of the source.
quantity: z-score

1) CC(C)N1C(=O)c2ccccc2[C@](C)(C(=O)NCc2ccccc2)[C@@H]1c1ccc(CO)cc1 ... -1.09 (inactive)
2) [N-]=[N+]=NCc1ccccc1[C@@H]1OC(c2ccc(OCCCO)cc2)=N[C@]1(CCS(=O)(=O)c1ccccc1)C(=O)NCCN1CCOCC1 ... -0.346 (inactive)
3) C=CC[C@@]1(C(=O)NCc2ccccc2)N=C(c2ccc(OCCCO)cc2)O[C@@H]1c1ccccc1N=[N+]=[N-] ... -2.2 (inactive)
4) CN1C(=O)C2C=CC(C(O)c3ccc(I)cc3)N(N3CCCCC3)C2C1=O (centres undefined) ... -2.13 (inactive)

---

- Tested on: Human papillomavirus type 1a protein E7 (residues 44-93)
- test: HPV1a E7 fragment binders on microarrays, primary screen, biochemical, small-molecule microarray, residues 44-93, 635 nm fluorescence (AID 1108);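 note: E7 fragment applied at 1 µg/mL in TBST for 1 h at 4 C; score combines spot fluorescence with its signal to noise ratio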
- recorded-conditions: small-molecule microarray binding, fluorescence 635 nm; higher = more signal
quantity: composite z-score

1) C=C(COC)/C(=C/C[C@H](OC(=O)c1ccncc1)c1ccc(OCCO)cc1)c1cnc2ccccc2c1 ... 1.46
2) COCCOC(=O)N1C(=O)[C@@]2(c3cc(C#Cc4ccc(OC)cc4)ccc31)[C@H](c1ccccc1OCCO)N1[C@H](c3ccccc3)[C@H](c3ccccc3)OC(=O)[C@H]1[C@@H]2C(=O)N1CCN(c2ncccn2)CC1 ... 1.18
3) COc1cc2c(cc1OC)CN(C(=O)[C@@H]1[C@H]3C(=O)O[C@H](c4ccccc4)[C@H](c4ccccc4)N3[C@H](c3ccc(O)cc3)[C@@]13C(=O)Nc1ccc(C#CC4(O)CCCCCC4)cc13)CC2 ... 1.21
4) CCCN1C(=O)[C@]2(CCS(=O)(=O)c3ccccc3)N=C(c3ccc(OCCCO)cc3)O[C@@H]2c2ccccc21 ... 1.42
5) NCCCCCNC(=O)[C@@H]1C[C@@H]2C(=O)NCC(=O)N2[C@@H]1c1ccc(O)cc1 ... 1.37
6) COC(=O)[C@@]1(Cc2ccc(OC)cc2)[C@H]2c3cc(C(=O)N(C)C)n(CCN4CNCC4=O)c3C[C@H]2CN1C(=O)c1ccccc1 ... -0.662

---

- tested-on: Concanavalin-A (Canavalia ensiformis) (UniProt P02866)
- Sequence (P02866 whole entry, looked up): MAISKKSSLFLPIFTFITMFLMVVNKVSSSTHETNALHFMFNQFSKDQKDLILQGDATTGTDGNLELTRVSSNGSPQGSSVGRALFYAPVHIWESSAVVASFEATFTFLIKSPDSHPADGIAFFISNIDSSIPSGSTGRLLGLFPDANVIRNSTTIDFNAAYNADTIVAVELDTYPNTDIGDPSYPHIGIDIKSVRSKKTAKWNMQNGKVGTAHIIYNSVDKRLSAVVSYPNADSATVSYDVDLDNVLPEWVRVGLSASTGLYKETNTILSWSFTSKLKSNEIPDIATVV
- test: ConA small-molecule binders, primary screen, artefact control for SMM control protein annotation, biochemical, small-molecule microarray, Alexa647 label, 635 nm (AID 1127);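 note: z combines 667 nm emission intensity with signal-to-noise across three replicate slides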
- recorded-conditions: ConA-A647 binding fluorescence, higher = more signal
Entry flag: yes if composite z-score reaches 1; no if it does not.

1) O=C1c2ccccc2[C@@]2(Cc3ccccc3N(CCN3CCOCC3)C2=O)[C@H](c2ccc(CO)cc2)N1Cc1ccccc1 ... no
2) COCCOC(=O)N1C(=O)[C@@]2(c3ccccc31)[C@H](c1ccccc1OCCO)N1[C@H](c3ccccc3)[C@H](c3ccccc3)OC(=O)[C@H]1[C@@H]2C(=O)Nc1nc2ccccc2s1 ... yes
3) COCCOC(=O)N1C(=O)[C@@]2(c3cc(C#CC4=CCCCC4)ccc31)[C@H](c1ccc(O)cc1)N1[C@H](c3ccccc3)[C@H](c3ccccc3)OC(=O)[C@H]1[C@@H]2C(N)=O ... yes
4) CN1C(=O)[C@]2(Cc3ccccc3)N=C(c3ccc(OCCCO)cc3)O[C@@H]2c2ccccc21 ... no
5) COC(=O)[C@@]1(Cc2ccc(OC)cc2)[C@H]2c3cc(C(=O)N4CCCC4)n(Cc4ccccc4)c3C[C@H]2CN1C(=O)c1ccccc1 ... yes
6) O=C1O[C@H](c2ccccc2)[C@H](c2ccccc2)N2[C@H]1[C@@H](C(=O)NC[C@H](O)c1ccccc1)[C@]1(C(=O)Nc3ccccc31)[C@H]2c1ccc(OCCO)cc1 ... yes
7) C=CCNC(=O)[C@@H]1[C@H]2C(=O)O[C@H](c3ccccc3)[C@H](c3ccccc3)N2[C@H](c2ccccc2OCCO)[C@@]12C(=O)N(C(=O)OCCOC)c1ccc(C#CCNC(N)=O)cc12 ... no
8) C=C[C@H](COC(C)=O)N(C(=O)OC(C)(C)C)S(=O)(=O)c1ccc(Br)cc1 ... no
9) COC(=O)[C@@]1(Cc2ccc(F)cc2)[C@H]2c3cc(C(=O)N4CCCC4)n(Cc4cc(C)n(C)n4)c3C[C@H]2CN1C(=O)c1ccccc1 ... yes
10) COc1ccc(C(=O)Nc2cccc(CN3C(=O)[C@]4(O[C@H](CCO)[C@@H]([Si](C)(C)c5ccc(OC)cc5)[C@@H]4C)c4ccccc43)c2)cc1 ... yes
11) COc1ccc(C(O)C2C=CC3C(=O)NC(=O)C3N2Nc2ccccn2)cc1 (stereo unspecified) ... no
12) O=C1NC(=O)C2C1C=CC(C(O)c1cccc3ccccc13)N2Nc1ccccn1 (stereo unspecified) ... no
13) COc1ccc(C(=O)Nc2ccc(CN3C(=O)[C@@]4(O[C@@H](CCO)[C@H]([Si](C)(C)c5ccc(OC)cc5)[C@H]4C)c4ccccc43)cc2)cc1 ... yes
14) CN(C)C(=O)[C@]1(Cc2ccccc2N=[N+]=[N-])N=C(c2ccc(OCCCO)cc2)O[C@@H]1c1ccccc1 ... yes
15) O=C(NCc1ccccc1)[C@@H]1c2ccccc2C(=O)N(CC23CC4CC(CC(C4)C2)C3)[C@H]1c1ccc(CO)cc1 ... yes
16) C=CCOC(=O)[C@H]1[C@@H]2C(=O)O[C@@H](c3ccccc3)[C@@H](c3ccccc3)N2[C@@H](c2ccc(OCCOC(=O)[C@H]3C[C@H]4C(=O)N[C@@H](CC(C)C)C(=O)N4[C@H]3c3ccc(O)cc3)cc2)[C@]12C(=O)Nc1ccc(I)cc12 ... yes
17) C=CCN(Cc1ccccc1)C(=O)C(c1cccs1)N(CCOCCO)C(=O)/C=C\C(=O)O (stereo unspecified) ... no
18) C=CCOC(=O)[C@H]1[C@@H]2C(=O)O[C@@H](c3ccccc3)[C@@H](c3ccccc3)N2[C@@H](c2ccc(OCCOC(=O)[C@@H]3C[C@@H]4C(=O)N5CCC[C@H]5C(=O)N4[C@@H]3c3cccc(OCCO)c3)cc2)[C@]12C(=O)Nc1ccccc12 ... yes
19) [N-]=[N+]=NCc1ccccc1[C@@H]1OC(c2ccc(OCCCO)cc2)=N[C@]1(CCS(=O)(=O)c1ccccc1)C(=O)NCc1ccccc1 ... yes
20) CCCC[C@@H]1C[C@H]1[C@@H](NC(=O)c1ccco1)c1ccc(C(=O)OC)cc1 ... no
21) COCC(=C=CC[C@H](O)c1ccccc1OCCO)C[C@H](O)c1cc(Cl)cc(Cl)c1O ... no
22) COC(=O)C(CC#Cc1ccc2c(c1)[C@]1(C(=O)N2)[C@H](c2ccc(O)cc2)N2[C@H](c3ccccc3)[C@H](c3ccccc3)OC(=O)[C@H]2[C@@H]1C(=O)Nc1nc2ccccc2s1)C(=O)OC ... yes
23) COCCOC(=O)N1C(=O)[C@@]2(c3cc(C#CC4=CCCCC4)ccc31)[C@H](C(=O)Nc1nc3ccccc3s1)[C@H]1C(=O)O[C@H](c3ccccc3)[C@H](c3ccccc3)N1[C@@H]2c1ccc(OCCO)cc1 ... yes
24) O=C1[C@H]2C=C(Br)[C@H](C[C@@H]2OCCCCO)[C@@]12CO2 ... no
25) COCCOC(=O)N1C(=O)[C@@]2(c3cc(C#CCCO)ccc31)[C@H](C(=O)N1CCN(c3ncccn3)CC1)[C@H]1C(=O)O[C@H](c3ccccc3)[C@H](c3ccccc3)N1[C@@H]2c1ccccc1OCCO ... yes
